# Read-out: Interleukin-8 (IL8), CXCL8 (gene 3576)
# assay-protocol: BSK_SAg_IL8: BioMAP Diversity Plus: SAg Assay for Interleukin-8 (IL8) Biomarker Activity (AID 2283094)
# test-parameters: primary human HUVEC with PBMC; actives raise or lower the signal
The source made the active and inactive calls. The calls were made as follows: active = hit-call score of the fitted dose curve at least 0.9, where 1 is the maximum; inactive = score below 0.9.
Outcomes: active, inactive

compound=CC(=O)OCC(COC(C)=O)OC(C)=O qualitative_label=inactive
compound=CN(C)C(=O)NC1(c2ccccc2)CCN(CCC[C@]2(c3ccc(Cl)c(Cl)c3)CCCN(C(=O)c3ccccc3)C2)CC1 qualitative_label=inactive
compound=CCc1nc(N)nc(N)c1-c1ccc(Cl)cc1 qualitative_label=inactive
compound=S=c1[nH]c2ccccc2s1 qualitative_label=inactive
compound=Oc1ccc(O)cc1 qualitative_label=inactive
compound=CC(C)(C)c1ccccc1 qualitative_label=inactive
compound=CCc1cc(C2=C(C(=O)O)N(c3ccccc3C(F)(F)F)S(=O)(=O)c3ccccc32)cc2c1OCO2 qualitative_label=inactive
compound=O=C(O)CC(O)(CC(=O)O)C(=O)O qualitative_label=inactive
compound=O=C(O)c1[nH]n(-c2ccc(S(=O)(=O)O)cc2)c(=O)c1N=Nc1ccc(S(=O)(=O)O)cc1 qualitative_label=inactive
compound=CC(=O)O qualitative_label=inactive
compound=CSc1ccc(Oc2ccc(S(N)(=O)=O)cc2CN(C)C)cc1C qualitative_label=inactive
compound=CCCCCCCCCCCCCCOS(=O)(=O)O qualitative_label=inactive
compound=O=C(N[C@@H](c1ccccc1)[C@@H]1CCCCN1)c1cccc(C(F)(F)F)c1Cl qualitative_label=active
compound=CC(C)OC(=O)C(C)(C)Oc1ccc(C(=O)c2ccc(Cl)cc2)cc1 qualitative_label=active
compound=Nc1nc(Cl)nc2c1ncn2[C@H]1C[C@H](O)[C@@H](CO)O1 qualitative_label=inactive
compound=CC(=O)[C@@]1(O)CC[C@H]2[C@@H]3CCC4=CC(=O)CC[C@]4(C)[C@H]3CC[C@@]21C qualitative_label=inactive
compound="CCCCC(CC)COC(=O)CCCCCCCC(=O)OCC(CC)CCCC (centres undefined)" qualitative_label=inactive
compound=C=CCCCCCCCCCCCC qualitative_label=inactive
compound=CCCC[C@H]1CN(CC2CCOCC2)C(=O)OC12CCN(C1(C)CCN(C(=O)c3c(C)ncnc3C)CC1)CC2 qualitative_label=inactive
compound=NC(=Nc1ccccc1)Nc1ccccc1 qualitative_label=inactive
compound=O=C1O[C@H]([C@H](O)CO)C(O)=C1O qualitative_label=inactive
compound=O=C1OC(c2ccc(O)cc2)(c2ccc(O)cc2)c2ccccc21 qualitative_label=active
compound=CC(=O)O[C@]1(C(C)=O)CC[C@H]2[C@@H]3C=C(Cl)C4=CC(=O)[C@@H]5C[C@@H]5[C@]4(C)[C@H]3CC[C@@]21C qualitative_label=inactive
compound=OCC(O)CO qualitative_label=inactive

###

# tested-system: Sodium channel protein type 1 subunit alpha (Rattus norvegicus)
# assay-protocol: NVS_IC_rNaCh_site2: NovaScreen (NVS) Ion Channel Assay for rat Sodium Channel, Site 2 (NaCh) (AID 2283322);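 also: hit means loss of radioligand binding signal relative to DMSO so AC50 marks displacement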
# Method: NVS_IC_rNaCh_site2 is a biochemical, single-readout assay that uses extracted gene-proteins from Rat forebrain membranes in a tissue-based cell-free assay. Measurements were taken 1 hour after chemical dosing in a 48-well plate.NVS_IC_rNaCh_site2 is one of one assay component(s) measured or calculated from the NVS_IC_rNaCh_site2 assay. […] This assay endpoint, NVS_IC_rNaCh_site2, was analyzed in the positive analysis fitting direction relative to DMSO as the negative control and baseline of activity. […]
Inconclusive results are not listed. Activity calls are given as the source filed them. The calls were made as follows: active = hit-call score of the fitted dose curve at least 0.9, where 1 is the maximum; inconclusive = response in the unintended direction; inactive = score below 0.9.
Outcomes: 1 (yes) (active), 0 (no) (inactive)

smiles_entry=COC(=O)[C@H]1[C@H]2C[C@@H]3c4[nH]c5cc(OC)ccc5c4CCN3C[C@H]2C[C@@H](OC(=O)c2cc(OC)c(OC)c(OC)c2)[C@@H]1OC tested_system="Sodium channel protein type 1 subunit alpha (Rattus norvegicus)" qualitative_label="1 (yes)"
smiles_entry=CCN(CC)CCOc1ccc(C(=C(Cl)c2ccccc2)c2ccccc2)cc1 tested_system="Sodium channel protein type 1 subunit alpha (Rattus norvegicus)" qualitative_label="1 (yes)"
smiles_entry=Cc1cc(SC2=C(O)C[C@@](CCc3ccc(N)cc3)(C(C)C)OC2=O)c(C(C)(C)C)cc1CO tested_system="Sodium channel protein type 1 subunit alpha (Rattus norvegicus)" qualitative_label="0 (no)"
smiles_entry=CCc1nc(N)nc(N)c1-c1ccc(Cl)cc1 tested_system="Sodium channel protein type 1 subunit alpha (Rattus norvegicus)" qualitative_label="1 (yes)"
smiles_entry=CN(C)CCCN1c2ccccc2Sc2ccc(Cl)cc21 tested_system="Sodium channel protein type 1 subunit alpha (Rattus norvegicus)" qualitative_label="1 (yes)"
smiles_entry=CN(C)C(=O)NC1(c2ccccc2)CCN(CCC[C@]2(c3ccc(Cl)c(Cl)c3)CCCN(C(=O)c3ccccc3)C2)CC1 tested_system="Sodium channel protein type 1 subunit alpha (Rattus norvegicus)" qualitative_label="1 (yes)"
smiles_entry=CSc1ccc(Oc2ccc(S(N)(=O)=O)cc2CN(C)C)cc1C tested_system="Sodium channel protein type 1 subunit alpha (Rattus norvegicus)" qualitative_label="1 (yes)"
smiles_entry=Cn1cnc2c1c(=O)[nH]c(=O)n2C tested_system="Sodium channel protein type 1 subunit alpha (Rattus norvegicus)" qualitative_label="0 (no)"

###

# Read-out: ABC Transporter (ABCC2), ABCC2 (gene 1244)
# assay-protocol: LTEA_HepaRG_ABCC2: Life Technologies and Expression Analysis (LTEA) Assay for ABC Transporter (ABCC2) using HepaRG (AID 2283464)
# test-parameters: mRNA level, 48 h; actives raise or lower the signal
Active and inactive are the calls of the source. How the source made its calls: active means hit-call score of the fitted dose curve at least 0.9, where 1 is the maximum; inactive means score below 0.9.
reported-endpoint: AC50

compound=O=NO value_observed=inactive
compound=CCCC(=O)O value_observed=inactive
compound=O=C1CCCCC1 value_observed=inactive
compound=CCCCCCC(C=O)=Cc1ccccc1 value_observed=inactive
compound=c1ccc2occc2c1 value_observed=inactive
compound=Cc1cc(SC2=C(O)C[C@@](CCc3ccc(N)cc3)(C(C)C)OC2=O)c(C(C)(C)C)cc1CO value_observed="2.16 µM (active)"
compound=CC1(C)C(=O)NC(=O)N1CO value_observed=inactive
compound=COC(=O)CCC(=O)OC value_observed=inactive
compound=Oc1ccccc1O value_observed=inactive
compound=Cc1ccc(-c2cc(C(F)(F)F)nn2-c2ccc(S(N)(=O)=O)cc2)cc1 value_observed="85 µM (active)"
compound=N[C@@H](Cc1c[nH]c2ccccc12)C(=O)O value_observed=inactive
compound=COc1ccc(OC(F)(F)F)cc1CN[C@H]1CCCN[C@H]1c1ccccc1 value_observed="82.9 µM (active)"
compound="CC(C)NCC(O)c1ccc(O)c(O)c1 (configuration not stated)" value_observed="0.128 µM (active)"
compound=CCc1nc(N)nc(N)c1-c1ccc(Cl)cc1 value_observed=inactive
compound=NC=O value_observed=inactive
compound="Cc1c(C)c2c(c(C)c1O)CCC(C)(COc1ccc(CC3SC(=O)NC3=O)cc1)O2 (configuration not stated)" value_observed="93.7 µM (active)"
compound=O=C(O)CN(CC(=O)O)CC(=O)O value_observed=inactive
compound=CS(=O)(=O)c1ccc([C@@H](C[C@H]2CCC(=O)C2)C(=O)Nc2cnccn2)cc1Cl value_observed="12.5 µM (active)"
compound=CCc1cc(C2=C(C(=O)O)N(c3ccccc3C(F)(F)F)S(=O)(=O)c3ccccc32)cc2c1OCO2 value_observed="1.64 µM (active)"
compound=S=c1[nH]c2ccccc2s1 value_observed=inactive
compound="CC(=O)OC1CC(C)OC(C)O1 (configuration not stated)" value_observed=inactive
compound="CCCCC(CC)COP(=O)(OCC(CC)CCCC)OCC(CC)CCCC (configuration not stated)" value_observed=inactive
compound="CC(=O)CC(c1ccccc1)c1c(O)c2ccccc2oc1=O (configuration not stated)" value_observed=inactive
compound=CN(C)CCCN1c2ccccc2Sc2ccc(Cl)cc21 value_observed="89.6 µM (active)"
compound="CCCCCCC(CCCCCCCCCCC(=O)OCC(COC(C)=O)OC(C)=O)OC(C)=O (configuration not stated)" value_observed=inactive
compound=O=C(NS(=O)(=O)/C=C/c1cccs1)c1ccc(F)cc1Br value_observed="7.3 µM (active)"
compound=CC(=O)OCC(COC(C)=O)OC(C)=O value_observed=inactive

###

# Read-out: ATP-citrate lyase (ACLY), ACLY (gene 47)
# assay-protocol: LTEA_HepaRG_ACLY: Life Technologies and Expression Analysis (LTEA) Assay for ATP-citrate lyase (ACLY) using HepaRG (AID 2283466)
# test-parameters: mRNA level, 48 h; actives raise or lower the signal
The source made the active and inactive calls. How the source made its calls: active means hit-call score of the fitted dose curve at least 0.9, where 1 is the maximum; inactive means score below 0.9.
Outcomes: active, inactive

compound=CC(C)OC(=O)C(C)(C)Oc1ccc(C(=O)c2ccc(Cl)cc2)cc1 qualitative_label=inactive
compound=CC(C)c1cccc(C(C)C)c1NC(=O)NS(=O)(=O)c1cc(C(C)(C)O)co1 qualitative_label=inactive
compound=CC1(C)C(=O)NC(=O)N1CO qualitative_label=inactive
compound=O=[Si]=O qualitative_label=inactive
compound=CC(=O)OCC(COC(C)=O)OC(C)=O qualitative_label=inactive
compound=Oc1ccc(O)cc1 qualitative_label=inactive
compound=O=C(O)c1[nH]n(-c2ccc(S(=O)(=O)O)cc2)c(=O)c1N=Nc1ccc(S(=O)(=O)O)cc1 qualitative_label=inactive
compound="CCCCC(CC)COP(=O)(OCC(CC)CCCC)OCC(CC)CCCC (configuration not stated)" qualitative_label=inactive
compound=CCN(CC)CCOc1ccc(C(=C(Cl)c2ccccc2)c2ccccc2)cc1 qualitative_label=inactive
compound=OCC(CO)n1cnc(-c2ccc(F)cc2)c1-c1ccnc(Oc2ccccc2)n1 qualitative_label=inactive
compound=CN(C)C(=O)NC1(c2ccccc2)CCN(CCC[C@]2(c3ccc(Cl)c(Cl)c3)CCCN(C(=O)c3ccccc3)C2)CC1 qualitative_label=inactive
compound=NC=O qualitative_label=inactive
compound=COC(=O)CCCC(=O)OC qualitative_label=inactive
compound="Cc1c(C)c2c(c(C)c1O)CCC(C)(COc1ccc(CC3SC(=O)NC3=O)cc1)O2 (configuration not stated)" qualitative_label=inactive
compound=CCOCCOCCO qualitative_label=inactive
compound=O=C(O)c1cccnc1 qualitative_label=inactive
compound=Cc1occc(=O)c1O qualitative_label=inactive
compound=CCCCCCCC(=O)OC qualitative_label=inactive
compound=O=C(O)CN(CC(=O)O)CC(=O)O qualitative_label=inactive
compound=NCCOCCOCCN qualitative_label=inactive
compound=CN(C)CCCN1c2ccccc2Sc2ccc(Cl)cc21 qualitative_label=inactive
compound=CC(=O)S[C@H](C(=O)N[C@H]1Cc2ccccc2[C@H]2CCC[C@@H](C(=O)O)N2C1=O)C(C)C qualitative_label=inactive
compound="CC(C)NCC(O)c1ccc(O)c(O)c1 (configuration not stated)" qualitative_label=active
compound=CC(=O)O qualitative_label=inactive
compound=NC(=Nc1ccccc1)Nc1ccccc1 qualitative_label=inactive
compound=C/C=C/C=C/C(=O)O qualitative_label=inactive
compound=Cc1ccc(-c2cc(C(F)(F)F)nn2-c2ccc(S(N)(=O)=O)cc2)cc1 qualitative_label=active

meta.source: PubChem BioAssay (EPA / NIEHS)
